Tested on: SW-620 colon
Experiment: NCI-60 one-dose screen, 48 h (100 = growth as untreated, 0 = no growth, -100 = all killed)
Settings: 10 µM unless noted
Compounds without any hit were thinned out: in the full panel of roughly 83,000, 20% have a hit.
Classes based on growth: label 0 (below 40%), label 1 (40% to below 90%), label 2 (90% or more)

Illustrative cases are given below, each with its answer.
>>> df
                                   compound  grouplabel
0                           CC(=O)Cc1cccnc1     label 2
1  CC(C)[C@@H]1NC(=O)[C@]2(C)CSC(=N2)c2ccnc(c2)CNC(=O)C[C@@H](/C=C/CCS)OC1=O     label 0
2  O=C(Nc1ccc(-n2cc(-c3ccncc3)c(-c3ccc(O)c(Cl)c3)n2)cc1)c1ccc(Cl)c(Cl)c1     label 0
3  CC(=O)c1cc2c(N)c(C(=O)Nc3cccc(Cl)c3)sc2nc1C     label 2
4  CN(C)c1ccc(/C=c2\s/c(=C\C(=O)C(C)(C)C)[nH]c2=O)cc1     label 2
5  CCn1c(SC)nnc1-c1cc2c([nH]c3ccccc32)c(-c2cccc(O)c2)n1     label 0
6     FC(F)(F)c1cn(CCN2CCOCC2)c2ncnc(Cl)c12     label 1
7   CCOc1ccc(NC2=C(Cl)C(=O)c3ccccc3C2=O)cc1     label 0

Where would COc1ccc(-c2nn(-c3cccc(Cl)c3)cc2-c2cc(-c3ccc(Br)cc3)[nH]c(=O)c2C#N)cc1 land among the classes by reported growth?
label 1

Also need O=c1c2ccccc2sc2c(N3CCCC3)nc3ccccc3c12 , thanks.
label 2
